Data origin, for the record: ChEMBL document CHEMBL3232844

Tested on: A549
Assay: Cytotoxicity against human A549 cells
Type: functional
Settings: read-out: pTGI (converted)
Below: a set of entries, each annotated with reported TGI.
observed.property: TGI (µM)

1. COc1cc(/C=C/c2cc(OC)c3cc[nH]c3c2)cc2c1O[C@]1(C)CC[C@@H](O)C(C)(C)[C@H]1C2: 17.8
2. COc1cc(/C=C/c2cc(OC)c3c(C/C=C(\C)CCC=C(C)C)c[nH]c3c2)cc2c1O[C@]1(C)CC[C@@H](O)C(C)(C)[C@H]1C2: 36.3
3. COc1cc(/C=C/c2cc(O)c3c(CC=C(C)C)c[nH]c3c2)cc2c1O[C@]1(C)CC[C@@H](O)C(C)(C)[C@H]1C2: 50.1
4. COc1cc(/C=C/c2cc(O)c3c(c2)C[C@@H]2C(C)(C)[C@H](O)CC[C@@]2(C)O3)cc2[nH]cc(CC=C(C)C)c12: 38.9
5. COc1cc(/C=C/c2cc(OC)c3c(CC=C(C)C)c[nH]c3c2)cc2c1O[C@]1(C)CC[C@@H](O)C(C)(C)[C@H]1C2: 12.9
6. COc1cc(/C=C/c2cc(O)c3cc[nH]c3c2)cc2c1O[C@]1(C)CC[C@@H](O)C(C)(C)[C@H]1C2: 3.72
7. COc1cc(/C=C/c2cc(O)c3c(c2)C[C@@H]2C(C)(C)[C@H](O)CC[C@@]2(C)O3)cc2c1ccn2C: 23.4
8. CC1(C)[C@H](O)CC[C@@]2(C)Oc3c(O)cc(/C=C/c4cc(O)c5cc[nH]c5c4)cc3C[C@H]12: 8.32
9. COc1cc(/C=C/c2cc(O)c3ccn(C)c3c2)cc2c1O[C@]1(C)CC[C@@H](O)C(C)(C)[C@H]1C2: 64.6
